Biological target: Glutamate NMDA receptor; GRIN1/GRIN2A (Homo sapiens, UniProt Q05586+Q12879)
Sequence (Q12879 whole entry, other chains not shown): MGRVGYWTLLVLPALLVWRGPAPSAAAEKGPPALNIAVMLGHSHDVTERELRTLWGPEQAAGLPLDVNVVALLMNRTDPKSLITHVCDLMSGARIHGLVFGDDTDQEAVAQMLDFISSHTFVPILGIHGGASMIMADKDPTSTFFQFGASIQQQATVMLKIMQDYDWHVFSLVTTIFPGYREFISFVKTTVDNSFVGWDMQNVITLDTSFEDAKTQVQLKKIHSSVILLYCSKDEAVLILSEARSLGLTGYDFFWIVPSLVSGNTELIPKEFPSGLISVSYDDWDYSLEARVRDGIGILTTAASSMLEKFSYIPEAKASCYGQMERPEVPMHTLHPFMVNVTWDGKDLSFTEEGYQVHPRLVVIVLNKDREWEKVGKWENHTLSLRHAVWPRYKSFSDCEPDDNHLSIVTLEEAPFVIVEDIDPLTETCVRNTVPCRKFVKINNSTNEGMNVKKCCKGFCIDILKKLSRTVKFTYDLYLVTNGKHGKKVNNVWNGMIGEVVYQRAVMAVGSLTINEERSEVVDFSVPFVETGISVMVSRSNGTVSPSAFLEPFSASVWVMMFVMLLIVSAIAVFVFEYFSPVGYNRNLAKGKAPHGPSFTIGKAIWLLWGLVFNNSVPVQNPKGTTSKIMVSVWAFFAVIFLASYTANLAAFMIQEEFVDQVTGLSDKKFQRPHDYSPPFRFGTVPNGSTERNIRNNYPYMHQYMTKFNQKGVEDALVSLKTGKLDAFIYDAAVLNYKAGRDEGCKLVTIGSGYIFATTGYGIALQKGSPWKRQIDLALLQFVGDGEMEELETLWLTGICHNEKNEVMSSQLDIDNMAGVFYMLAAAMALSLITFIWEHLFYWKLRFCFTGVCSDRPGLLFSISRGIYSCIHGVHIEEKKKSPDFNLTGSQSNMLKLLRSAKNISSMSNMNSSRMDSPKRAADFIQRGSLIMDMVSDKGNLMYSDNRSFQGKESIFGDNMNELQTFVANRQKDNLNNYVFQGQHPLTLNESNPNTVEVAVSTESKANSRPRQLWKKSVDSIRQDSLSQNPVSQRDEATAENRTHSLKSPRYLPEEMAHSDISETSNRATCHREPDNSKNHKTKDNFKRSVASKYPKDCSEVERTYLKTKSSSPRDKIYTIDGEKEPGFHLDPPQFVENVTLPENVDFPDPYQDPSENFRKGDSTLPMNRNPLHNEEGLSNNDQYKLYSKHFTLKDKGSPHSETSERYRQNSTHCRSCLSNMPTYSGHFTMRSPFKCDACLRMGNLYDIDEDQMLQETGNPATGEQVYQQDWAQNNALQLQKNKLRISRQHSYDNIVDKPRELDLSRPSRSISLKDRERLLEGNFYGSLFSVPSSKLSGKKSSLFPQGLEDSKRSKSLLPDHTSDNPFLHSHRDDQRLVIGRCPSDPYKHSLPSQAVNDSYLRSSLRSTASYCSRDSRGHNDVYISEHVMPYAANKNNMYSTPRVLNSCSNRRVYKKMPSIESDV
Assay: Antagonist activity at human GluN1/GluN2A receptor expressed in HEK293 cells assessed as inhibition of L-glutamate induced response at -40 mV membrane potential by patch clamp electrophysiology analysis
Format: cell-based
pIC50: −log10 of the molar value.
Measure Name: pIC50

>>> measured_value("CNC1(c2ccccc2Cl)CCCCC1=O (stereo not drawn) [KETAMINE]")
4.27
>>> measured_value("CC(C)CNC1c2ccccc2C=Cc2ccccc21.Cl")
4.65
>>> measured_value("Cl.OCCNC1c2ccccc2CCc2ccccc21")
3.56
